# Test system: SF-295
# Experimental Details: NCI one-dose SRB anti-proliferative screen
# Assay type: cell-based
# Protocol Conditions: Homo sapiens; SF-295 (CNS Cancer), NCI one dose 10 µM; read-out: Cell growth inhibition %
Observable: inhibition at 10 µM (%)
Express your answer in %, writing the number without its unit.

Task item: # inhibition at 10 µM lookup, item COc1ccc(/C=C/C(=O)c2ccc(NC(=O)CSc3nnc(-c4ccc5[nH]c(-c6ccc(OC)c(OC)c6)nc5c4)o3)cc2)cc1
Reply: 3.2

Task item: # inhibition at 10 µM lookup, item COc1ccc(-c2nc3cc(-c4nnc(SCC(=O)Nc5ccc(C(=O)/C=C/c6ccc(Cl)cc6)cc5)o4)ccc3[nH]2)cc1OC
Reply: 1.96

Task item: # inhibition at 10 µM lookup, item COc1ccc(/C=C/C(=O)c2ccc(NC(=O)CSc3nnc(-c4ccc5[nH]c(-c6ccc(Cl)cc6)nc5c4)o3)cc2)cc1
Reply: 0

Task item: # inhibition at 10 µM lookup, item COc1ccc(-c2nc3cc(-c4nnc(SCC(=O)Nc5ccc(C(=O)/C=C/c6ccccc6)cc5)o4)ccc3[nH]2)cc1OC
Reply: 5.09

Task item: # inhibition at 10 µM lookup, item COc1cc(-c2nc3cc(-c4nnc(SCC(=O)Nc5ccc(C(=O)/C=C/c6ccccc6)cc5)o4)ccc3[nH]2)cc(OC)c1OC
Reply: 2

Task item: # inhibition at 10 µM lookup, item O=C(CSc1nnc(-c2ccc3[nH]c(-c4ccc(Cl)cc4)nc3c2)o1)Nc1ccc(C(=O)/C=C/c2ccc(Cl)cc2)cc1
Reply: 7.04

Task item: # inhibition at 10 µM lookup, item O=C(CSc1nnc(-c2ccc3[nH]c(-c4ccc(Cl)cc4)nc3c2)o1)Nc1ccc(C(=O)/C=C/c2ccccc2)cc1
Reply: 0

Task item: # inhibition at 10 µM lookup, item COc1cc(-c2nc3cc(-c4nnc(SCC(=O)Nc5ccc(C(=O)/C=C/c6ccc(Cl)cc6)cc5)o4)ccc3[nH]2)cc(OC)c1OC
Reply: 2.25

---

# Test system: A498
# Experimental Details: NCI one-dose SRB anti-proliferative screen
# Assay type: cell-based
# Protocol Conditions: Homo sapiens; A498, Renal cancer; NCI one dose; read-out: Cell growth inhibition %
Observable: inhibition at 10 µM (%)
Express your answer in %, writing the number without its unit.

Task item: # inhibition at 10 µM lookup, item COc1ccc(-c2nc3cc(-c4nnc(SCC(=O)Nc5ccc(C(=O)/C=C/c6cc(OC)c(OC)c(OC)c6)cc5)o4)ccc3[nH]2)cc1
Reply: 0

Task item: # inhibition at 10 µM lookup, item O=C(CSc1nnc(-c2ccc3[nH]c(-c4ccccc4)nc3c2)o1)Nc1ccc(C(=O)/C=C/c2ccccc2)cc1
Reply: 4.13

Task item: # inhibition at 10 µM lookup, item COc1ccc(/C=C/C(=O)c2ccc(NC(=O)CSc3nnc(-c4ccc5[nH]c(-c6ccc(OC)cc6)nc5c4)o3)cc2)cc1
Reply: 0

Task item: # inhibition at 10 µM lookup, item COc1cc(/C=C/C(=O)c2ccc(NC(=O)CSc3nnc(-c4ccc5[nH]c(-c6ccccc6)nc5c4)o3)cc2)cc(OC)c1OC
Reply: 15.6

---

# System: SR
# Experimental Details: NCI one-dose SRB anti-proliferative screen
# Assay type: cell-based
# Protocol Conditions: Homo sapiens; SR, Leukemia; NCI one dose; read-out: Cell growth inhibition %
Kindly state inhibition at 10 µM for each of the entries shown.
Express your answer in %, writing the number without its unit.

Task item: Lab request: please report inhibition at 10 µM under test system SR for COc1ccc(/C=C/C(=O)c2ccc(NC(=O)CSc3nnc(-c4ccc5[nH]c(-c6ccccc6)nc5c4)o3)cc2)cc1
Reply: 12.7

Task item: Lab request: please report inhibition at 10 µM under test system SR for COc1cc(/C=C/C(=O)c2ccc(NC(=O)CSc3nnc(-c4ccc5[nH]c(-c6ccccc6)nc5c4)o3)cc2)cc(OC)c1OC
Reply: 63.2

Task item: Lab request: please report inhibition at 10 µM under test system SR for COc1ccc(-c2nc3cc(-c4nnc(SCC(=O)Nc5ccc(C(=O)/C=C/c6ccccc6)cc5)o4)ccc3[nH]2)cc1
Reply: 51.6

Task item: Lab request: please report inhibition at 10 µM under test system SR for COc1ccc(/C=C/C(=O)c2ccc(NC(=O)CSc3nnc(-c4ccc5[nH]c(-c6ccccc6)nc5c4)o3)cc2)cc1OC
Reply: 4.34

Task item: Lab request: please report inhibition at 10 µM under test system SR for COc1ccc(-c2nc3cc(-c4nnc(SCC(=O)Nc5ccc(C(=O)/C=C/c6ccc(OC)c(OC)c6)cc5)o4)ccc3[nH]2)cc1
Reply: 73.6

Task item: Lab request: please report inhibition at 10 µM under test system SR for COc1ccc(-c2nc3cc(-c4nnc(SCC(=O)Nc5ccc(C(=O)/C=C/c6ccc(Cl)cc6)cc5)o4)ccc3[nH]2)cc1
Reply: 31.8

---

# Tested on: UACC-62
# Experimental Details: NCI one-dose SRB anti-proliferative screen
# Type: cell-based
# Protocol Conditions: Homo sapiens; UACC-62 (Melanoma), NCI one dose 10 µM; read-out: Cell growth inhibition %
# Protocol: The twenty-four synthesized compounds were submitted to the National Cancer Institute (NCI), USA. Eighteen hybrids 7a-h, 7k-r, 7u, and 7v were selected by NCI for one-dose assessment of their anti-proliferative activities at 10 µM dose by Sulforhodamine B colorimetric assay. The assessment was performed in 60 cell lines derived from nine tumor subpanels, comprising lung, leukemia, melanoma, colon, renal, CNS, prostate, breast, and ovarian cancer cell lines. […]
Class yes: inhibition at 10 µM at least 5%. Class no: inhibition at 10 µM below 5%.

Task item: Reported inhibition at 10 µM at or above 5%? COc1ccc(-c2nc3cc(-c4nnc(SCC(=O)Nc5ccc(C(=O)/C=C/c6ccc(Cl)cc6)cc5)o4)ccc3[nH]2)cc1OC
Reply: no

Task item: Reported inhibition at 10 µM at or above 5%? O=C(CSc1nnc(-c2ccc3[nH]c(-c4ccc(Cl)cc4)nc3c2)o1)Nc1ccc(C(=O)/C=C/c2ccc(Cl)cc2)cc1
Reply: yes

Task item: Reported inhibition at 10 µM at or above 5%? COc1cc(-c2nc3cc(-c4nnc(SCC(=O)Nc5ccc(C(=O)/C=C/c6ccc(Cl)cc6)cc5)o4)ccc3[nH]2)cc(OC)c1OC
Reply: yes

Task item: Reported inhibition at 10 µM at or above 5%? COc1ccc(/C=C/C(=O)c2ccc(NC(=O)CSc3nnc(-c4ccc5[nH]c(-c6ccc(Cl)cc6)nc5c4)o3)cc2)cc1
Reply: yes

Task item: Reported inhibition at 10 µM at or above 5%? COc1ccc(/C=C/C(=O)c2ccc(NC(=O)CSc3nnc(-c4ccc5[nH]c(-c6ccc(OC)c(OC)c6)nc5c4)o3)cc2)cc1
Reply: yes

Task item: Reported inhibition at 10 µM at or above 5%? COc1cc(-c2nc3cc(-c4nnc(SCC(=O)Nc5ccc(C(=O)/C=C/c6ccccc6)cc5)o4)ccc3[nH]2)cc(OC)c1OC
Reply: yes

---

# System: SK-MEL-2
# Experimental Details: NCI one-dose SRB anti-proliferative screen
# Assay type: cell-based
# Protocol Conditions: Homo sapiens; SK-MEL-2, Melanoma; NCI one dose; read-out: Cell growth inhibition %
Observable: inhibition at 10 µM (%)
Express your answer in %, writing the number without its unit.

Task item: # inhibition at 10 µM lookup, item COc1ccc(-c2nc3cc(-c4nnc(SCC(=O)Nc5ccc(C(=O)/C=C/c6ccc(Cl)cc6)cc5)o4)ccc3[nH]2)cc1
Reply: 0

Task item: # inhibition at 10 µM lookup, item COc1ccc(/C=C/C(=O)c2ccc(NC(=O)CSc3nnc(-c4ccc5[nH]c(-c6ccccc6)nc5c4)o3)cc2)cc1
Reply: 2.65

Task item: # inhibition at 10 µM lookup, item COc1ccc(/C=C/C(=O)c2ccc(NC(=O)CSc3nnc(-c4ccc5[nH]c(-c6ccccc6)nc5c4)o3)cc2)cc1OC
Reply: 0

Task item: # inhibition at 10 µM lookup, item COc1ccc(-c2nc3cc(-c4nnc(SCC(=O)Nc5ccc(C(=O)/C=C/c6ccccc6)cc5)o4)ccc3[nH]2)cc1
Reply: 0

Task item: # inhibition at 10 µM lookup, item O=C(CSc1nnc(-c2ccc3[nH]c(-c4ccccc4)nc3c2)o1)Nc1ccc(C(=O)/C=C/c2ccc(Cl)cc2)cc1
Reply: 0

Task item: # inhibition at 10 µM lookup, item COc1ccc(-c2nc3cc(-c4nnc(SCC(=O)Nc5ccc(C(=O)/C=C/c6cc(OC)c(OC)c(OC)c6)cc5)o4)ccc3[nH]2)cc1
Reply: 0

Task item: # inhibition at 10 µM lookup, item COc1cc(/C=C/C(=O)c2ccc(NC(=O)CSc3nnc(-c4ccc5[nH]c(-c6ccccc6)nc5c4)o3)cc2)cc(OC)c1OC
Reply: 0

Task item: # inhibition at 10 µM lookup, item COc1ccc(-c2nc3cc(-c4nnc(SCC(=O)Nc5ccc(C(=O)/C=C/c6ccc(OC)c(OC)c6)cc5)o4)ccc3[nH]2)cc1
Reply: 6.27

Task item: # inhibition at 10 µM lookup, item COc1ccc(/C=C/C(=O)c2ccc(NC(=O)CSc3nnc(-c4ccc5[nH]c(-c6ccc(OC)cc6)nc5c4)o3)cc2)cc1
Reply: 0

Task item: # inhibition at 10 µM lookup, item O=C(CSc1nnc(-c2ccc3[nH]c(-c4ccccc4)nc3c2)o1)Nc1ccc(C(=O)/C=C/c2ccccc2)cc1
Reply: 0
